Data provenance is ChEMBL document CHEMBL3112561.

Target: Glucokinase regulatory protein (Mus musculus, UniProt Q91X44)
Sequence (Q91X44 whole entry): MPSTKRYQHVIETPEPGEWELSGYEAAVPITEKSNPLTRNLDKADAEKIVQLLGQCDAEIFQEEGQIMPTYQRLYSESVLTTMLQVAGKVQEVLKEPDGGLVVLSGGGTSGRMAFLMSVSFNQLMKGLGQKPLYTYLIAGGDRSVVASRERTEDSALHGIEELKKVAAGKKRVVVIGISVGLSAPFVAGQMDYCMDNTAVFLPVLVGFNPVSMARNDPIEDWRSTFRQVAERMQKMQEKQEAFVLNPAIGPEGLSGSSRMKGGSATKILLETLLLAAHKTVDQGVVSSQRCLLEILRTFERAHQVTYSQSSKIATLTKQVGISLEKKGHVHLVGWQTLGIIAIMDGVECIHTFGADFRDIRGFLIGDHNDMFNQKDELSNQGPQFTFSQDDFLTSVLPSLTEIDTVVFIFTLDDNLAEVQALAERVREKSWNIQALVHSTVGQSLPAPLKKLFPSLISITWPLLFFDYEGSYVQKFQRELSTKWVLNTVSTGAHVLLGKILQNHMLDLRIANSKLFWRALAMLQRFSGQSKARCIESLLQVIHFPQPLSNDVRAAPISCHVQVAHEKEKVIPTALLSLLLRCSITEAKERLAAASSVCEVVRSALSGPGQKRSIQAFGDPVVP
Test: Induction of GK translocation from nucleus to cytoplasm of mouse hepatocytes preincubated for 20 mins followed by glucose challenge measured after 40 mins by Hoechst 33342 staining-based assay
pEC50: −log10 of the molar value.
REPORTED PROPERTY: pEC50

COMPOUND | pEC50
CC(O)(c1ccc(N2CCN(S(=O)(=O)c3cccs3)C[C@@H]2CN2[C@H]3COC[C@H]2[C@@H](O)C3)cc1)C(F)(F)F (mixture of isomers) | 5.89
Nc1cccc(S(=O)(=O)N2CCN(c3ccc(C(O)(C(F)(F)F)C(F)(F)F)cc3)CC2)c1 | < 4.90
Nc1ccc(S(=O)(=O)N2CCN(c3ccc(C(O)(C(F)(F)F)C(F)(F)F)cc3)CC2)s1 | < 4.90
CC(O)(c1ccc(N2CCN(S(=O)(=O)c3cccs3)C[C@@H]2CN2CC3(COC3)C2)cc1)C(F)(F)F (mixture of isomers) | < 4.90
C[C@H]1COCCN1C[C@H]1CN(S(=O)(=O)c2cccs2)CCN1c1ccc(C(C)(O)C(F)(F)F)cc1 (mixture of isomers) | 6.09
O=S(=O)(c1ccccc1)N1CCN(c2ccc(C(O)(C(F)(F)F)C(F)(F)F)cc2)CC1 | < 4.90

Lab note: next compound to report on.
Return pEC50 for the following compound: Nc1ccc(S(=O)(=O)N2CCN(c3ccc(C(O)(C(F)(F)F)C(F)(F)F)cc3)CC2)cn1
< 4.90

====

Assay: Intrinsic clearance in rat liver microsomes at 1 uM after 30 mins in presence of NADPH
Format: ADME
Conditions: read-out: CLH
Reported values of microsomal CLint at 1 µM for individual entries
The response must be a number in µL/min/mg with no trailing unit.

Previously resolved entries follow.
MOLECULE | microsomal CLint at 1 µM [µL/min/mg]
CC(C)(C)C#CC1CN(S(=O)(=O)c2ccc(N)nc2)CCN1c1ccc(C(O)(C(F)(F)F)C(F)(F)F)cc1 (racemic) | 90
CC(O)(c1ccc(N2CCN(S(=O)(=O)c3cccs3)C[C@@H]2CN2CCC(F)(F)CC2)cc1)C(F)(F)F (mixture of isomers) | 349

Lab note: next molecule to report on.
Return microsomal CLint at 1 µM for the following molecule: C[C@@](O)(c1ccc(N2CCN(S(=O)(=O)c3cccs3)C[C@@H]2CN2[C@H]3COC[C@@H]2[C@H](O)C3)cc1)C(F)(F)F
118

====

Reported values of MRT for individual entries
Test: Mean residence time in C57Bl6 mouse at 10 mg/kg, po
Format: ADME, organism-based
Set-up: dose 10 mg/kg, route oral
Details: in vivo
The response must be a number in h with no trailing unit.

MOLECULE | EXPERIMENTAL VALUE
CC#C[C@H]1CN(S(=O)(=O)c2ccc(N)nc2)CCN1c1ccc([C@@](C)(O)C(F)(F)F)cc1 | 5.3

Lab note: next compound to report on.
Return MRT for the following compound: CC#C[C@H]1CN(S(=O)(=O)c2ccc(N)nc2)CCN1c1ccc(C(O)(C(F)(F)F)C(F)(F)F)cc1
9.2

====

Target: Glucokinase regulatory protein (Homo sapiens, UniProt Q14397)
Sequence (Q14397 whole entry): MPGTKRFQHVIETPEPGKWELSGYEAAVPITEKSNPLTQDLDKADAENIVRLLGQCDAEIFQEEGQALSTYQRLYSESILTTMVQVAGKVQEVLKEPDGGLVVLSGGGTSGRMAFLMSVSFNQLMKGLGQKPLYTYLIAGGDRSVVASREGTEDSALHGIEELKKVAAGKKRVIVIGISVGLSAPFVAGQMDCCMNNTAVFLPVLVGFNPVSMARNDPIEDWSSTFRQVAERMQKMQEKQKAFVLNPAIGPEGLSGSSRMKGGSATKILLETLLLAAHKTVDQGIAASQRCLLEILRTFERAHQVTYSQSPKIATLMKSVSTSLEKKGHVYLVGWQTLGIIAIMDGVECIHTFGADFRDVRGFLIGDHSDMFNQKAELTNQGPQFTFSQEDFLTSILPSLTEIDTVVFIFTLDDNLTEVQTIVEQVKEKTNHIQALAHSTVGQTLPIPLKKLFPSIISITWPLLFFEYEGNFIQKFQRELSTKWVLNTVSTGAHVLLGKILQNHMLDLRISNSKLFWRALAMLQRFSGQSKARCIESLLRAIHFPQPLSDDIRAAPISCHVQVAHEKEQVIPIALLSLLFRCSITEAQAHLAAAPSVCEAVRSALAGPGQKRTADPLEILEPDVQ
Test: Inhibition of fluorescein-labeled human GK interaction with biotin-labeled human GKRP incubated for 20 mins prior to addition of fluorescein-labeled GK measured after 2 to 4 hrs by Alpha Screen assay
Reported values of pIC50 for individual entries
Schema: pIC50 number; meaning minus log10 of the concentration expressed in molar units.

Previously resolved entries follow.
COMPOUND | pIC50
Nc1ccc(S(=O)(=O)N2CCN(c3ccc(C(O)(C(F)(F)F)C(F)(F)F)cc3)CC2)cc1 | 6.32
CC(C)(C)C#CC1CN(S(=O)(=O)c2ccc(N)nc2)CCN1c1ccc(C(O)(C(F)(F)F)C(F)(F)F)cc1 (racemic) | 5.84
C[C@H]1COCCN1C[C@H]1CN(S(=O)(=O)c2cccs2)CCN1c1ccc(C(C)(O)C(F)(F)F)cc1 (mixture of isomers) | 8.15
CC1CS(=O)(=O)CCN1C[C@H]1CN(S(=O)(=O)c2cccs2)CCN1c1ccc(C(C)(O)C(F)(F)F)cc1 (mixture of isomers) | 7.05
Nc1cc(S(=O)(=O)N2CCN(c3ccc(C(O)(C(F)(F)F)C(F)(F)F)cc3)CC2)ccn1 | 5.06
Nc1ccc(S(=O)(=O)N2CCN(c3ccc(C(O)(C(F)(F)F)C(F)(F)F)cc3)CC2)s1 | 6.60

Lab note: next compound to report on.
Return pIC50 for the following compound: CCC#CC1CN(S(=O)(=O)c2ccc(N)nc2)CCN1c1ccc(C(O)(C(F)(F)F)C(F)(F)F)cc1 (racemic)
7.25

====

Experiment: Intrinsic clearance in rat liver microsomes at 1 uM after 30 mins in presence of NADPH
Assay type: ADME
Settings: read-out: CLH
Reported values of microsomal CLint at 1 µM for individual entries
The response must be a number in µL/min/mg with no trailing unit.

Previously resolved entries follow.
COMPOUND | EXPERIMENTAL VALUE
Nc1ccc(S(=O)(=O)N2CCN(c3ccc(C(O)(C(F)(F)F)C(F)(F)F)cc3)C(C#CC3CC3)C2)cn1 (racemic) | 61
CC(O)(c1ccc(N2CCN(S(=O)(=O)c3cccs3)C[C@@H]2CN2CCS(=O)(=O)CC2)cc1)C(F)(F)F (mixture of isomers) | 50
Nc1ccc(S(=O)(=O)N2CCN(c3ccc(C(O)(C(F)(F)F)C(F)(F)F)cc3)CC2)cc1 | 49

Lab note: next compound to report on.
Return microsomal CLint at 1 µM for the following compound: Nc1csc(S(=O)(=O)N2CCN(c3ccc(C(O)(C(F)(F)F)C(F)(F)F)cc3)CC2)c1
90

====

Experiment: Intrinsic clearance in human liver microsomes at 1 uM after 30 mins in presence of NADPH
Assay type: ADME
Conditions: read-out: CLH
REPORTED PROPERTY: microsomal CLint at 1 µM (µL/min/mg)
The response must be a number in µL/min/mg with no trailing unit.

Previously resolved entries follow.
COMPOUND | EXPERIMENTAL VALUE
CC(O)(c1ccc(N2CCN(S(=O)(=O)c3cccs3)C[C@@H]2CN2CCC(F)(F)CC2)cc1)C(F)(F)F (mixture of isomers) | 280
C[C@@](O)(c1ccc(N2CCN(S(=O)(=O)c3cccs3)C[C@@H]2CN2[C@H]3COC[C@@H]2[C@H](O)C3)cc1)C(F)(F)F | 128
C[C@H]1COCCN1C[C@H]1CN(S(=O)(=O)c2cccs2)CCN1c1ccc([C@@](C)(O)C(F)(F)F)cc1 | 353

Lab note: next compound to report on.
Return microsomal CLint at 1 µM for the following compound: C[C@@](O)(c1ccc(N2CCN(S(=O)(=O)c3cccs3)C[C@@H]2CN2[C@@H]3COC[C@H]2[C@@H](O)C3)cc1)C(F)(F)F
99

====

Experiment: Intrinsic clearance in rat liver microsomes at 1 uM after 30 mins in presence of NADPH
Type: ADME
Details: read-out: CLH
Reported values of microsomal CLint at 1 µM for individual entries
The response must be a number in µL/min/mg with no trailing unit.

Previously resolved entries follow.
COMPOUND | microsomal CLint at 1 µM / µL/min/mg
Nc1ccc(S(=O)(=O)N2CCN(c3ccc(C(O)(C(F)(F)F)C(F)(F)F)cc3)CC2)s1 | 128
Nc1ccccc1S(=O)(=O)N1CCN(c2ccc(C(O)(C(F)(F)F)C(F)(F)F)cc2)CC1 | 237
CC(O)(c1ccc(N2CCN(S(=O)(=O)c3cccs3)C[C@@H]2CN2[C@H]3COC[C@H]2[C@@H](O)C3)cc1)C(F)(F)F (mixture of isomers) | 141
CCC#CC1CN(S(=O)(=O)c2ccc(N)nc2)CCN1c1ccc(C(O)(C(F)(F)F)C(F)(F)F)cc1 (racemic) | 109
Nc1cccc(S(=O)(=O)N2CCN(c3ccc(C(O)(C(F)(F)F)C(F)(F)F)cc3)CC2)c1 | 59

Return microsomal CLint at 1 µM for the following compound: O=S(=O)(c1ccccc1)N1CCN(c2ccc(C(O)(C(F)(F)F)C(F)(F)F)cc2)CC1
94

Return microsomal CLint at 1 µM for the following compound: Nc1cc(S(=O)(=O)N2CCN(c3ccc(C(O)(C(F)(F)F)C(F)(F)F)cc3)CC2)ccn1
27
